// values below are reported growth inhibition
Test system: HGGX6 (H3.3 G34R paediatric high-grade glioma line)
Assay: growth inhibition (% activity, log2 RLU normalised to DMSO / staurosporine); higher = more growth inhibition
Conditions: 33 µM

Lookup: # input compound: Cc1ccc(C(=O)c2ccc(CC(=O)O)n2C)cc1 ; wanted: its growth inhibition
Found: -0.641%

Lookup: Requested read-out: growth inhibition. Entry: CC(=O)SCC(Cc1ccccc1)C(=O)NCC(=O)OCc1ccccc1 (stereo unspecified)
Found: 1.32%

Lookup: What value of measured growth inhibition is listed for Cc1ccccc1N1C(=O)c2cc(S(N)(=O)=O)c(Cl)cc2NC1C (stereo unspecified) ?
Found: -0.825%

Lookup: Need growth inhibition of O=c1[nH]cc(F)c(=O)[nH]1 , thanks.
Found: 7.93%

Lookup: Look at this compound and give its reported growth inhibition. COc1ccc2c(c1OC)C(=O)O[C@@H]2[C@H]1c2c(cc3c(c2OC)OCO3)CCN1C
Found: 1.48%

Alright, here's another compound for you.
Lookup: So what's the measured growth inhibition for this one? COc1cc2nccc(Oc3ccc(NC(=O)C4(C(=O)Nc5ccc(F)cc5)CC4)cc3)c2cc1OC
Found: 17.7%

###

Tested on: DIPGX29 (H3.3 K27M diffuse intrinsic pontine glioma line)
Test: growth inhibition (% activity, log2 RLU normalised to DMSO / staurosporine); higher = more growth inhibition
Conditions: 33 µM
quantityName: growth inhibition (%)
All answers are understood in %, so give the number only.

Previously resolved entries follow.
Lookup: Given the entry CS(=O)(=O)OCCCCOS(C)(=O)=O , report its measured growth inhibition.
Found: 1.61

Lookup: What does the data say about its growth inhibition? Entry: CNNCc1ccc(C(=O)NC(C)C)cc1
Found: 2.14

Lookup: Param item = CCOC(=O)C1=C(C)NC(C)=C(C(=O)OCC)C1c1ccccc1/C=C/C(=O)OC(C)(C)C ; retrieve measured growth inhibition.
Found: 5.9

Next:
Lookup: Quick one: growth inhibition of Cn1nnc2c(C(N)=O)ncn2c1=O ?
Found: -1.97

Lookup: Please report the recorded growth inhibition for Nc1ncnc2c1ncn2[C@@H]1O[C@H](COP(=O)(O)OP(=O)(O)OP(=O)(O)O)[C@@H](O)[C@H]1O .
Found: 1.45

Lookup: Which growth inhibition reading was recorded for the compound CN(C)CCCN1c2ccccc2Sc2ccc(C(F)(F)F)cc21 ?
Found: 1.07

Lookup: I'd like to know its growth inhibition. The compound in question is CCCC(=O)Nc1ccc(OCC(O)CNC(C)C)c(C(C)=O)c1 (stereo unspecified)
Found: -1.23

Lookup: Could you tell me which growth inhibition is on file for CCN(CCCc1ccccc1)CCCc1ccccc1 ?
Found: 2.04

Lookup: Tell me the measured growth inhibition of O=C(NC[C@H]1CN(c2ccc(N3CCOCC3=O)cc2)C(=O)O1)c1ccc(Cl)s1 , please.
Found: -0.891

Lookup: growth inhibition for Cc1ccnc2c1NC(=O)c1cccnc1N2C1CC1 ?
Found: 0.291

Lookup: // lookup growth inhibition for O=C(N/N=C/c1ccc([N+](=O)[O-])o1)c1ccc(O)cc1
Found: 6.1

###

System: DIPGX9 (diffuse intrinsic pontine glioma line)
Assay: growth inhibition (% activity, log2 RLU normalised to DMSO / staurosporine); higher = more growth inhibition
Conditions: 33 µM
Each record here notes measured growth inhibition.
Only the number, expressed in %, is required.

Take a look at these entries with their results.
Lookup: Given CC1Cc2ccccc2N1NC(=O)c1ccc(Cl)c(S(N)(=O)=O)c1 (stereo not given) , state its recorded growth inhibition.
Found: -0.538

Lookup: Need growth inhibition, item Nc1nc(=O)c2c([nH]1)NC[C@H](CNc1ccc(C(=O)N[C@@H](CCC(=O)O)C(=O)O)cc1)N2C=O
Found: 0.677

Lookup: Entry under review: O=P(O)(O)C(O)(Cn1ccnc1)P(=O)(O)O . Reported growth inhibition?
Found: 1.97

New cases:
Lookup: State the recorded growth inhibition for this entry: Nc1nccs1
Found: 1.18

Lookup: Returns the measured growth inhibition for the input compound. Input: C[C@@H](O)[C@H]1C(=O)N2C(C(=O)O)=C(S[C@@H]3CN[C@H](C(=O)N(C)C)C3)[C@H](C)[C@H]12
Found: -0.242

Lookup: Look at this compound and give its reported growth inhibition. Cc1ccccc1N1C(=O)c2cc(S(N)(=O)=O)c(Cl)cc2NC1C (stereo not given)
Found: -0.0701

Lookup: What value of measured growth inhibition is listed for COC(=O)[C@H](c1ccccc1Cl)N1CCc2sccc2C1 ?
Found: -0.762

Lookup: Could you share which growth inhibition value was measured for CO[C@H]1O[C@@H]2O[C@@]3(C)CC[C@H]4[C@H](C)CC[C@@H]([C@H]1C)[C@@]24OO3 ?
Found: 2.08

Lookup: Item under review: CCCc1nc2c(C)cc(-c3nc4ccccc4n3C)cc2n1Cc1ccc(-c2ccccc2C(=O)O)cc1 . Reported growth inhibition?
Found: -0.132

Lookup: Quick one: growth inhibition for Nc1ccc(C(=O)NCC(=O)O)cc1 ?
Found: 0.0884

###

Reported growth inhibition values are given for each entry in this list.
System: DIPGX7 (H3.3 K27M diffuse intrinsic pontine glioma line)
Test: growth inhibition (% activity, log2 RLU normalised to DMSO / staurosporine); higher = more growth inhibition
Conditions: 33 µM
Respond numerically; units are % and should not be typed.

Would you please look over these solved cases?
Lookup: Can you look up the measured growth inhibition of O=C([O-])[C@H](O)[C@@H](O)[C@H](O)[C@H](O)CO.[Na+] for me?
Found: 2.56

Lookup: Which growth inhibition value belongs to C[C@H]1[C@H](NC(=O)/C(=N\OC(C)(C)C(=O)O)c2csc(N)n2)C(=O)N1S(=O)(=O)O ?
Found: 2.55

Lookup: Consider the compound Cc1cccc(C)c1OCC(=O)N[C@@H](Cc1ccccc1)[C@@H](O)C[C@H](Cc1ccccc1)NC(=O)[C@H](C(C)C)N1CCCNC1=O and give its measured growth inhibition.
Found: -0.846

Lookup: Look at this compound and give its reported growth inhibition. CCCCNc1cc(C(=O)O)cc(S(N)(=O)=O)c1Oc1ccccc1
Found: -0.851

Lookup: Look at this compound and give its reported growth inhibition. C[C@@H]1O[C@@H]1P(=O)(O)O
Found: -0.0992

Further cases:
Lookup: Fill blank: measured growth inhibition of the compound CN1[C@@H]2CC[C@H]1CC(OC(=O)c1c[nH]c3ccccc13)C2 (stereo partly drawn) is ____.
Found: 6.41

Lookup: // lookup growth inhibition for C[C@H]1C[C@@H]2[C@H]([C@@H](O)C[C@@]3(C)[C@H]2CC[C@]3(O)C(=O)CO)[C@@]2(C)C=CC(=O)C=C12
Found: -1.93

Lookup: What does the data say about its growth inhibition? Entry: C[C@H]1c2cccc(O)c2C(=O)C2=C(O)[C@]3(O)C(=O)C(C(N)=O)=C(O)[C@@H](N(C)C)[C@@H]3[C@@H](O)[C@@H]21
Found: 1.55

###

Tested on: DIPGX9
Experiment: growth inhibition (% activity, log2 RLU normalised to DMSO / staurosporine); higher = more growth inhibition
Details: 33 µM
quantityName: growth inhibition (%)
// note: answer is a bare numeric in %

Check out these entries, answers already filled in.
Lookup: // lookup growth inhibition | system=DIPGX9 | key= CN(C)CCC=C1c2ccccc2CCc2ccccc21
Found: 1.79

Lookup: Record Cc1ccc(C)c(OCCCC(C)(C)C(=O)O)c1 : what is its growth inhibition with DIPGX9?
Found: 0.88

Lookup: Give the reported growth inhibition for CCCC(=O)Nc1ccc(OCC(O)CNC(C)C)c(C(C)=O)c1 (stereo not drawn) (system: DIPGX9).
Found: -0.6

Lookup: GET /values?readout=growth inhibition&system=DIPGX9&item= Cn1ccnc1S
Found: -0.195

Lookup: Give DIPGX9 growth inhibition for N=S(=O)(O)Cc1noc2ccccc12
Found: -1.19

More entries:
Lookup: Request body: readout growth inhibition, system DIPGX9, query CN(C)C(=N)NC(=N)N . Return the value.
Found: -1.73

Lookup: Form entry - test system: DIPGX9; read-out: growth inhibition; molecule: COc1cc2nc(N3CCN(C(=O)C4CCCO4)CC3)nc(N)c2cc1OC (stereo not drawn)
Found: 0.282

Lookup: Form field - read-out: growth inhibition; system: DIPGX9; submitted item: NC(CO)C(=O)NNCc1ccc(O)c(O)c1O (stereo not drawn)
Found: -0.46

###

System: DIPGX9
Assay: growth inhibition (% activity, log2 RLU normalised to DMSO / staurosporine); higher = more growth inhibition
Conditions: 33 µM
The entries below are paired with their reported growth inhibition.
The figure you give is taken to be in %; do not add the unit.

Here's what some known entries look like.
Lookup: I am curious: what growth inhibition value has been reported for CCC[C@@H]1C[C@@H](C(=O)N[C@@H]([C@H]2O[C@H](SC)[C@H](OP(=O)(O)O)[C@@H](O)[C@H]2O)[C@H](C)Cl)N(C)C1 ?
Found: -1.01

Lookup: Could you tell me which growth inhibition is on file for CN1CCC(=C2c3ccccc3CC(=O)c3sccc32)CC1 ?
Found: 0.0911

Continuing:
Lookup: # get_value(readout='growth inhibition', item= NC(N)=Nc1nc(CSCC/C(N)=N/S(N)(=O)=O)cs1 )
Found: -0.682

Lookup: Which value of growth inhibition has been reported for CC(=O)SCC(Cc1ccccc1)C(=O)NCC(=O)OCc1ccccc1 (stereo not given) in the records?
Found: 1.31

Lookup: Fill in: growth inhibition of CN1c2cc(O)c(N=NC(N)=O)cc2CC1S(=O)(=O)O (stereo not given) is ___
Found: -0.808

Lookup: Record request: growth inhibition value, item Nc1nc(NC2CC2)c2ncn([C@H]3C=C[C@@H](CO)C3)c2n1
Found: 1.56

Lookup: Item under review: NS(=O)(=O)c1cc2c(cc1Cl)NCNS2(=O)=O . Reported growth inhibition?
Found: 0.545

Lookup: Fill blank: measured growth inhibition of the molecule CC(C)[C@H](N)C(=O)OCC(CO)OCn1cnc2c(=O)[nH]c(N)nc21 (stereo not given in full) is ____.
Found: 0.141

Lookup: Please give the measured growth inhibition for this molecule: N#C[C@@H]1C[C@@H]2C[C@@H]2N1C(=O)[C@@H](N)C12CC3CC(CC(O)(C3)C1)C2
Found: 0.435

Lookup: So what does the record say about growth inhibition for Nc1nc(=O)c2c([nH]1)NCC(CNc1ccc(C(=O)N[C@@H](CCC(=O)O)C(=O)O)cc1)N2C=O (stereo not given in full) ?
Found: -0.907

Lookup: Please give the measured growth inhibition for this molecule: CC1CNc2c(cccc2S(=O)(=O)N[C@@H](CCCNC(=N)N)C(=O)N2CC[C@@H](C)C[C@@H]2C(=O)O)C1 (stereo not given in full)
Found: 0.277
